Numbers sourced from the supplement of paper PMC10567573.

B1: APBB1IP (parent)
chain: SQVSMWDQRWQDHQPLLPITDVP

Variants of: B1
Experiment: protein stability index of a GFP-peptide fusion (GPS, HEK-293T) (PSI 1-6); higher = more stable;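 note: lentivirally expressed fusions sorted by FACS into six bins by GFP to DsRed ratio, PSI derived from sequencing read proportions per bin multiplied by bin number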
Conditions: c terminus: native
In this section we review reported protein stability index values for a set of variants.
// print number alone

Please review the following examples before continuing.
Req: Quick one: protein stability index of Q11L ?
Resp: 1.59

Req: Quick one: protein stability index of D21Y ?
Resp: 1.65

Req: Quick one: protein stability index of Q14R ?
Resp: 1.86

Req: Quick one: protein stability index of D7L ?
Resp: 1.72

Then this variant:
Req: Quick one: protein stability index of R9L ?
Resp: 2.61
